Collected Kd values appear next to each entry.
Biological target: T1, Human C3 (Complement tech cat #A113c) (human, UniProt P01024 23-1663)
T1 construct: Purified protein immobilised by amine coupling in the SPR assay; in the haemolysis assay it is the C3 of diluted human serum; Native C3 consists of a beta and an alpha chain cut from one precursor; also called C3 protein
T1 sequence (P01024 23-1663 limits assumed): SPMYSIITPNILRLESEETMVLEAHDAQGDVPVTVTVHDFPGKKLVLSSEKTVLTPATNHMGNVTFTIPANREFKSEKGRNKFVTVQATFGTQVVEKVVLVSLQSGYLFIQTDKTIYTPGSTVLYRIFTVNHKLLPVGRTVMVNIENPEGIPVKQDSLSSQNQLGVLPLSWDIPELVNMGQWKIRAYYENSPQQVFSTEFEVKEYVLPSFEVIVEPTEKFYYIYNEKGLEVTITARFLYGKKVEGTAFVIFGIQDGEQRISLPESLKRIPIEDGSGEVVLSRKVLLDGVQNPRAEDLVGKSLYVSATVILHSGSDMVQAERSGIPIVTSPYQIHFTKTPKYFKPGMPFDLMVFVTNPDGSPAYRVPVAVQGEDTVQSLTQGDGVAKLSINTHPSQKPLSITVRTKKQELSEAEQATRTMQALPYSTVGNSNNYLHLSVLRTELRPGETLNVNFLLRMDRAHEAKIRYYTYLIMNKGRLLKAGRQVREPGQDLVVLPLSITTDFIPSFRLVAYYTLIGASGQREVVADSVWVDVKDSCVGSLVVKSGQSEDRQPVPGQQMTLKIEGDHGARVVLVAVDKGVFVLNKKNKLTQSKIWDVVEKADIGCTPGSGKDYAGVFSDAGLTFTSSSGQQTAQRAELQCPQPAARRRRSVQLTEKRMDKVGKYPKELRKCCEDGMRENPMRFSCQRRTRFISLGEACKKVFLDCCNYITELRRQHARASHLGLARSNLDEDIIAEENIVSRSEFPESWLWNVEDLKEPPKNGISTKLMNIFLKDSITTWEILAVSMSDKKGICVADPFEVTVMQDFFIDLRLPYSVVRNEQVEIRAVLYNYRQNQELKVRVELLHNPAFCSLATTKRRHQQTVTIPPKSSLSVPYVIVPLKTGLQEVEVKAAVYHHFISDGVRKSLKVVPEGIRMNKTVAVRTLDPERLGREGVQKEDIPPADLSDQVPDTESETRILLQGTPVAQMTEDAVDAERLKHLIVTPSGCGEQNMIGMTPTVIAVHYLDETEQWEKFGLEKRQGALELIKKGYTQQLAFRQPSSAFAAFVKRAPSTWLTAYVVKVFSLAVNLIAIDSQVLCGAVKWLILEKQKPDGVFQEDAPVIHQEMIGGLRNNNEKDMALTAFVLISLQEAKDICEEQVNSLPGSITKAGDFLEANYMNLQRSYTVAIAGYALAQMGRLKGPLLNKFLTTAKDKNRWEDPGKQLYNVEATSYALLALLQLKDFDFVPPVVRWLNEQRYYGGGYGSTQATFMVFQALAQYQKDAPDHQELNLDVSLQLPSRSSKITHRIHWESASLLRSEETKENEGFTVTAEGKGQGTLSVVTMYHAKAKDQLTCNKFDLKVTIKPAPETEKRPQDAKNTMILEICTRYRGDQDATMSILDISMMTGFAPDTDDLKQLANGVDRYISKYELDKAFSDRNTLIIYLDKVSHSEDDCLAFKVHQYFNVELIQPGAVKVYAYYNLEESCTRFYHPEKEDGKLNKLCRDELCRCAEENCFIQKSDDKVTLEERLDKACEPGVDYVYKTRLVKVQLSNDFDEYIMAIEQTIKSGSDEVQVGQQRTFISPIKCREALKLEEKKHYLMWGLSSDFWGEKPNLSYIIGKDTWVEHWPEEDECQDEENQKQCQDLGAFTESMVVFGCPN
Test: SPR (Biacore T200), human C3 immobilised, peptide injected, 1:1 fit
Positions of bridges follow the written chain, without caps; N, C: chain ends. Non-standard residues stand in square brackets, D forms with d. Trp(1-Me) = Cn1cc(C[C@H](N)C(=O)O)c2ccccc21; NMeI = CC[C@H](C)[C@H](NC)C(=O)O; AEEA = NCCOCCOCC(=O)O; Sar = CNCC(=O)O
metric: Kd (nM)

binder | recorded_number
Ac-ICIWQDWGEHRCTEGE-NH2 (disulfide 2-12; SMILES CC[C@H](C)[C@H](NC(C)=O)C(=O)N[C@H]1CSSC[C@@H](C(=O)N[C@H](C(=O)N[C@@H](CCC(=O)O)C(=O)NCC(=O)N[C@@H](CCC(=O)O)C(N)=O)[C@@H](C)O)NC(=O)[C@H](CCCNC(=N)N)NC(=O)[C@H](Cc2c[nH]cn2)NC(=O)[C@H](CCC(=O)O)NC(=O)CNC(=O)[C@H](Cc2c[nH]c3ccccc23)NC(=O)[C@H](CC(=O)O)NC(=O)[C@H](CCC(N)=O)NC(=O)[C@H](Cc2c[nH]c3ccccc23)NC(=O)[C@H]([C@@H](C)CC)NC1=O, also called Comp No 24) [Compound 24] | 28
H-[dY]ICI[Trp(1-Me)]QDW[Sar]AHRC[NMeI]-NH2 (disulfide 3-13; SMILES CC[C@H](C)[C@H](NC(=O)[C@H](N)Cc1ccc(O)cc1)C(=O)N[C@H]1CSSC[C@@H](C(=O)N(C)[C@H](C(N)=O)[C@@H](C)CC)NC(=O)[C@H](CCCNC(=N)N)NC(=O)[C@H](Cc2c[nH]cn2)NC(=O)[C@H](C)NC(=O)CN(C)C(=O)[C@H](Cc2c[nH]c3ccccc23)NC(=O)[C@H](CC(=O)O)NC(=O)[C@H](CCC(N)=O)NC(=O)[C@H](Cc2cn(C)c3ccccc23)NC(=O)[C@H]([C@@H](C)CC)NC1=O) [Compound 48] | 0.12
Ac-SEFCI[Trp(1-Me)]QDWGEHRC[Sar]EGE-{AEEA-AEEA-K(γGlu-Gly-γGlu-19-carboxy-nonadecanoyl)-NH2} (disulfide 4-14, also called comp 128) [Compound 128] | 6.5
Ac-ICI[Trp(1-Me)]QDWGEHRCT-NH2 (disulfide 2-12; SMILES CC[C@H](C)[C@H](NC(C)=O)C(=O)N[C@H]1CSSC[C@@H](C(=O)N[C@H](C(N)=O)[C@@H](C)O)NC(=O)[C@H](CCCNC(=N)N)NC(=O)[C@H](Cc2c[nH]cn2)NC(=O)[C@H](CCC(=O)O)NC(=O)CNC(=O)[C@H](Cc2c[nH]c3ccccc23)NC(=O)[C@H](CC(=O)O)NC(=O)[C@H](CCC(N)=O)NC(=O)[C@H](Cc2cn(C)c3ccccc23)NC(=O)[C@H]([C@@H](C)CC)NC1=O) [Compound 4] | 1.5
